The reported numbers originate from ChEMBL document CHEMBL3885881.

Species on record: Rattus norvegicus
Assay: DrugMatrix - Regimen: Daily Repeat
Assay type: toxicity, organism-based, Sprague-Dawley
Design: regimen Daily Repeat, gender Male, age 6-8 weeks
Conditions: in vivo, po, 1500 mg/kg, 120 h, tissue Plasma, route oral GAVAGE, dose level High, time 5 day, vehicle .5 % CMC
Classify as follows. Reported CREATININE greater than or equal to 0.2 mg/dL: class 1. Reported CREATININE below: class 0.

Compound | Qualitative Label
Cc1ccc(S(=O)(=O)NC(=O)NN2CC3CCCC3C2)cc1 (configuration not stated) [GLICLAZIDE] | class 0

Given the entry CO[C@H]1/C=C/O[C@@]2(C)Oc3c(C)c(O)c4c(c3C2=O)C2=NC3(CCN(CC(C)C)CC3)NC2=C(NC(=O)/C(C)=C\C=C\[C@H](C)[C@H](O)[C@@H](C)[C@@H](O)[C@@H](C)[C@H](OC(C)=O)[C@@H]1C)C4=O , answer whether its CREATININE meets or surpasses 0.2 mg/dL. class 0

Given the entry NC(=O)c1cnccn1 [PYRAZINAMIDE] , answer whether its CREATININE meets or surpasses 0.2 mg/dL. class 0
